# test.details: NCI Yeast Anticancer Drug Screen. Data for the sgs1 mgt1 strain (AID 161);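 further: 0% = growth of cultures given vehicle only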
# experimental.conditions: S. cerevisiae sgs1 mgt1 strain, at 50.0 µM (retest, dose inferred, filed as 5.0)
The panel holds about 79,000 compounds, 15% with a hit somewhere; the sample as a whole holds those more often. Active and inactive are the calls of the source. No stated cut-off is given here; in the data, active means growth inhibition above about 70%; inactive means the rest.
Choose one outcome from this list and give only that: active, inactive

Examples with answers:
compound: Cc1ccc(C(=O)OCCN2CCN(c3ccccc3)CC2)c([N+](=O)[O-])c1OCc1ccccc1
class: active

compound: CCOc1c(N=Nc2ccc(OC)cc2)c(-c2ccccc2)nn1C(N)=S
class: active

compound: CC(C)C1=CC23CCC4C(C)(C(=O)O)CCCC4(C)C2CC1CC3C#N (stereo not drawn)
class: inactive

compound: COc1ccc(N=NN(C)C)cc1
class: inactive

compound: O=C1C=C(c2ccccc2)O/C1=C/C(=O)c1ccc(Cl)cc1
class: inactive

compound: Oc1cc(O)c2c(c1)OC(c1ccc(O)c(O)c1)C(OC1(c3cc(O)c(O)c(O)c3)Oc3cc(O)cc(O)c3C(O)C1O)C2 (stereo not drawn)
class: inactive

Per the assay record, what outcome was assigned to `CCCCCCCCCCCCCCCC(=O)N1CCOCC1` ? active

Per the assay record, what outcome was assigned to COC1(OC)C(C#N)(C#N)C2(C(=O)Nc3ccccc32)C1(OC)OC (stereo not drawn) ? inactive

Per the assay record, what outcome was assigned to `NC(=S)NNC(=O)c1cccnc1` ? inactive

Per the assay record, what outcome was assigned to `O=C1c2ccc(Cl)cc2C(=O)c2cc(Cl)ccc21` ? active

Per the assay record, what outcome was assigned to `Cc1c(CNc2ccc(Cl)c(Cl)c2Cl)cnc2nc(N)nc(N)c12` ? inactive

Per the assay record, what outcome was assigned to `CCOC(=O)c1ccc(O)c(OC)c1` ? inactive

Per the assay record, what outcome was assigned to `O=C(CBr)c1cc(-c2ccc(Cl)cc2)nc2ccccc12` ? active

Per the assay record, what outcome was assigned to `Cc1ccsc1/C=N/Nc1cc(C)c2cccc(C)c2n1` ? inactive

* * *

# test.details: NCI Yeast Anticancer Drug Screen. Data for the sgs1 mgt1 strain (AID 161);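 further: 0% = growth of cultures given vehicle only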
# experimental.conditions: S. cerevisiae sgs1 mgt1 strain, at 5.0 µM (retest, dose inferred, filed as 0.5), stronger effect = higher value
Compounds without any hit were thinned out: in the full panel of roughly 79,000, 15% have a hit.
quantity: growth inhibition (%)
Answers are plain numbers, in %.

Check out these entries, answers already filled in.
compound: NC(C(=O)O)C1=CCCCCC1 (stereo unspecified)
growth inhibition [%]: 6
--
compound: CN(C)c1ccc(N=Nc2ccc3c4c(cccc24)-c2ccccc2-3)cc1
growth inhibition [%]: 3
--
compound: CCOC(=O)OC(=S)N(C1CCCCC1)C1CCCCC1
growth inhibition [%]: 5
--
compound: C=CCOCC(C)OC(=O)C(C)C (stereo unspecified)
growth inhibition [%]: -63
--
compound: COc1ccc2c(c1)CC[C@@H]1[C@@H]2CC[C@]2(C)/C(=N/OCCN3CCCC3)CC[C@@H]12
growth inhibition [%]: 24

Request the reported growth inhibition associated with `Cc1cccc(C)c1NC(=O)CSC(N)=O` 0

* * *

# test.details: NCI Yeast Anticancer Drug Screen. Data for the rad50 strain (AID 155);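 further: 0% = growth of vehicle-only cultures of the same strain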
# experimental.conditions: S. cerevisiae rad50 strain growth inhibition; at 5.0 µM (retest, dose inferred, filed as 0.5)
# Procedure: Growth inhibition of yeast strains with defined genetic alterations is measured as a screen for potential anti-cancer activity. Selected strains with alterations in DNA damage repair or cell cycle control were exposed to compounds and growth inhibition was measured relative to vehicle treated controls. The strain used in this assay is rad50
Compounds without any hit were thinned out: in the full panel of roughly 79,000, 15% have a hit. Calls of active or inactive are those of the source. Cut-off read from the data, not from the text of the source: active = growth inhibition above about 70%; inactive = the rest.
Choose one outcome from this list and give only that: 1.0 = active, 0.0 = inactive

Examples with answers:
molecule: C/C=C/C(=O)NCC(C(C)C)/[N+]([O-])=N/O (stereo unspecified)
class: 1.0
//
molecule: O=C1C=CC(=O)c2nc3ccccc3nc21
class: 0.0
//
molecule: O=C(O)C(Cc1cc(I)c(O)c(I)c1)c1ccccc1 (stereo unspecified)
class: 0.0
//
molecule: O=Cc1ccc2ccc3ccccc3c2c1
class: 0.0
//
molecule: CC1C(CCC(=O)O)OC2CC3C4CCC5CC(O)CCC5(C)C4CCC3(C)C21 (stereo unspecified)
class: 0.0

Read the next record carefully.
Per the assay record, what outcome was assigned to CC(C)C1=CC23CCC4C(C)(C(=O)O)CCCC4(C)C2CC1C(C(=O)O)C3C(=O)O (stereo unspecified) ? 1.0
